- Tested on: MS2 coat protein
- Method description: apparent KD of MS2 coat protein; designed switch direction (-1 OFF switch, 1 ON switch): 1; higher = weaker reporter binding
- Experimental context: input ligand: microRNA oligo, concentration not stated
Measured parameter: apparent KD of MS2 coat protein (µM)
All answers are understood in µM, so give the number only.

Worked examples follow.
GUUACAUGAGGAUCACCCAUGUAUGUGUGGGAGUAAGUGUCUUAGGAUAUCUAGUAUUUAAUUCAAGAGAAGGAAGAUUGUUGU [JMF's solution 68] (Eterna round: R96, puzzle: Same State NG 3)	0.132
AUUAUUUAUGCAGGAUAUGAUUAACAUGAGGAUCACCCAUGUGGUGUUGUGAGUAAGGAGAGUGAUCAGAAGGGCAUUGUUUUU [JMF's solution 46] (Eterna round: R96, puzzle: Same State NG 2)	0.473
GUGGCGGGUUGAGGAUAUUGGUUGCCUAUGUUUAACAUGAGGAUCACCCAUGUGGGUUGCGGUUUCGAGAAGGUAGGUUGCUGG [salish99_SSNG2_r04_046] (Eterna round: R96, puzzle: Same State NG 2)	0.109

API: the following record is the query input.
Query: Write down the reported apparent KD of MS2 coat protein (system: MS2 coat protein) of CGGGUGGUUCUAGGAUAUCUAGGAUAUGGACGAGGAUUACCCGAGCAGCAUUAGCGCACCAGAGGAGAGAAGGAGAGUGAUGCG [pwkr ssNG2 2F5 2FMN.16] (Eterna round: R96, puzzle: Same State NG 2)
Result: 0.00325
